- study_system: T1, BCMA on cells (293T cells transfected with BCMA; H929, MM.1S and U266 cell lines expressing BCMA) (human, UniProt Q02223 1-184)
- T1 construct: H929, MM.1S and U266 carry the native protein; also called B-cell Maturation Antigen; TNFRSF17
- T1 sequence: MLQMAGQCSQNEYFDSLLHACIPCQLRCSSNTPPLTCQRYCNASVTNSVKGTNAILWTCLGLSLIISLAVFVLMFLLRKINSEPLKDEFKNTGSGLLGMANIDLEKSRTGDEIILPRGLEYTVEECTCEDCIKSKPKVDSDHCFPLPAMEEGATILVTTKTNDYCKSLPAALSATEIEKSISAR
- experimental_details: flow cytometry, 293T cells transfected with BCMA, above parental 293T background; also: test concentration or dose not given here

binder	Positive (%)
SCT-Aa06(h/h) (antibody, V domains shown, Full IgG format, chimeric: human IgG1 heavy chain constant region, human kappa light chain constant region) VH: EVQLQQSGPELVKPGNSVKISCKASGYSFTGYFMNWVMQSHGKSLEWIGRINPYNGDTFYNQKFKGKATLTVDKSSSTAHMELRSLTSEDSAVYYCARLDYTNYNSYPMDYWGQGTSVTVSS VL: DIQMTHTTSSLSASLGDRVTISCSASQGISNYLNWYLQKPDGTVKLLIYYTSNLHSGVPSRFSGSGSGTDFSLTISNLQPEDIATYYCQQYSKFPWTFGGGTKLEIK	82.8
SCT-Aa05(m/m) (antibody, V domains shown, Full IgG format: mouse IgG1 heavy chain constant region, mouse kappa light chain constant region) VH: EVKLLQSGGGLVQPGGSLKLSCAASGIDFSRYWMSWVRRAPGKGLEWIGEINPDSSTINYAPSLKDKFIISRDNAKNTLYLQMSKVRSEDTGLYYCASLYYDYEREYGMDYWGQGTSVTVSS VL: DIVMTQSQKFMSTSVGDRVSVTCKASQNVGTNVAWYQQKPGQSPKALIYSASYRFSGVPDRFTGSGSGTDFTLTISNVQSEDLAEYFCQQYNSYPYTFGGGTKLEIK	94.3

Source of measurements: patent US20210332145A1
